Origin of the recorded values: the supplement of paper PMC10567573

B1: DVL3 (parent)
chain: YNPHPGFPELGYSYGGGSASSQHS

variants of: B1; experiment: protein stability index of a GFP-peptide fusion (GPS, HEK-293T) (PSI 1-6); higher = more stable; conditions: c terminus: a fixed tail appended;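 further: lentivirally expressed fusions sorted by FACS into six bins by GFP to DsRed ratio, PSI derived from sequencing read proportions per bin multiplied by bin number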
// values below are reported protein stability index
The answer should be written as a number, with no unit following it.

{"sequenceCode": "YNPHPGFPELGYSWGGGSASSQHS", "protein stability index": 2.76}

protein stability index lookup needed for `YNPHAGFPELGYSYGGGSASSQHS` , thanks. 2.58

What value of protein stability index has been recorded for this entry: `YNPHPGFRELGYSYGGGSASSQHS` 2.7

Entry `YNPHPGQPELGYSYGGGSASSQHS` has what protein stability index? 3.23

Record request: protein stability index value, item `YNPEPGFPELGYSYGGGSASSQHS` 2.7

Which protein stability index value belongs to `YNPHPGFPELGYSYGGGSASSQIS` ? 2.9

Need protein stability index of `YDPHPGFPELGYSYGGGSASSQHS` , thanks. 3.64

Which measured protein stability index value corresponds to `YNPHPGFPELGYSYGGGSASWQHS` ? 1.95

Param item = `YNPHPGFPELGVSYGGGSASSQHS` ; retrieve measured protein stability index. 1.74

What does the data say about its protein stability index? Entry: `YNPHPGFPELGYSYGGGSASFQHS` 1.88

Reported protein stability index, variant `YNPHPGFPELGMSYGGGSASSQHS` : ____ 3.29

Any idea what its protein stability index is? The variant is `YNPHPGFPELGYSYGFGSASSQHS` 1.79

What value of measured protein stability index is listed for `YNPHPGFPELGYSYGGLSASSQHS` ? 2.14

Consider the variant shown here: `YNPHPGFPGLGYSYGGGSASSQHS` What is its recorded protein stability index? 2.16

Request the reported protein stability index associated with `YNPHPGFPELGYSYGGGSASSQRS` 3

Could you tell me which protein stability index is on file for `YNPHPGTPELGYSYGGGSASSQHS` ? 3.44

Entry `YNPHPGFPELGYSYGGKSASSQHS` : reported protein stability index = ? 2.83

Name the recorded protein stability index for `YNPHPGFPELGYSYGGGSASNQHS` . 2.62
